Cited source for all entries: PubChem BioAssay (Tox21)

Target: Cytochrome P450 3A4 (Homo sapiens) (UniProt P08684)
Sequence (P08684 whole entry, looked up): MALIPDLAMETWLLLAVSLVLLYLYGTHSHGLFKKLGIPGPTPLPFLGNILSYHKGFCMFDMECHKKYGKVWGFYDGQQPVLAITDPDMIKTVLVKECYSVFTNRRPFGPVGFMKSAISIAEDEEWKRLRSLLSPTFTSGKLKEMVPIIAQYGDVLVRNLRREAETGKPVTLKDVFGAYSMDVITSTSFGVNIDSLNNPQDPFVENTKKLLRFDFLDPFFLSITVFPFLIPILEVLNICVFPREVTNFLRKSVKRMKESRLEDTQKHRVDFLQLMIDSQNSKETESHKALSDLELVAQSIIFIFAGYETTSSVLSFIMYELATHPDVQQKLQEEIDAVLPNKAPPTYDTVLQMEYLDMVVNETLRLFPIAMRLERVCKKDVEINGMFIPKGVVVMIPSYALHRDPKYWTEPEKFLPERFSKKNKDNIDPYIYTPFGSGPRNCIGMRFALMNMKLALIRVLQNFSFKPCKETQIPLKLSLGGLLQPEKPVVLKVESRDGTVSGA
Assay: Cytochrome P450 Family 3 Subfamily A Member 4 (CYP3A4) small molecule antagonists: luciferase reporter qHTS assay (AID 1671201); also: nearly all actives have a fitted effect of over 50% in size
Details: P450-Glo CYP3A4 enzyme, luciferin luminescence, 1 h; series mostly up to 115 µM
Description: National Center for Advancing Translational Sciences [NCATS] U.S. Environmental Protection Agency [EPA] National Institutes of Environmental Health Sciences [NIEHS] National Toxicology Program [NTP] U.S. Food and Drug Administration [FDA] Cytochrome P450 (CYP) enzymes are membrane-bound hemeproteins that play a key role in metabolism of drugs and xenobiotics. […] The luciferin products formed are detected with a luciferin detection reagent, and the amount of light produced is proportional to CYP activity. […]
Records with an inconclusive call do not appear. Activity calls are given as the source filed them. Calls follow the shape of the dose curve; as a rule, active = well fitted inhibition curve with a large enough effect in the repeat runs; inconclusive = weak or mixed curves; inactive = no such curve, though single readings can be large or run the other way.
Labels: true (active), false (inactive)

| compound | class-name |
| --- | --- |
| CCC1(c2ccccc2)CCC(=O)NC1=O (stereo not drawn) | false |
| CCCCCCCCSC(=O)Oc1cc(Cl)nnc1-c1ccccc1 | false |
| O=C(O)c1c(Cl)ccc2cc(Cl)cnc12 | false |
| CCN1CCCC1CNC(=O)C(O)(c1ccccc1)c1ccccc1 (stereo not drawn) | true |
| COC(=O)c1ccccc1CS(=O)(=O)NC(=O)Nc1nc(OC)cc(OC)n1 | false |
| CCCN1CCC[C@@H]2Cc3nc(N)ncc3C[C@H]21 | false |
| O=C(CCl)NCO | false |
| O=C(Cl)C(Cl)(Cl)Cl | false |
| CON(C)C(=O)Nc1ccc(Br)cc1 | false |
| NC1(c2ccccc2)CCCCC1 | false |
| N#CN | false |
| CN(C)CCN(C)C | false |
| CC(O)CCl (stereo not drawn) | false |
| COc1ccccc1OC | false |
| Cn1c(CCCC(=O)O)nc2cc(N(CCCl)CCCl)ccc21 | false |
| NNCc1ccccc1 | true |
| O=C(O)CBr | false |
| C/C=C/CC#N | false |
| COC1=CC(=O)O[C@@H](/C=C/c2ccccc2)C1 | false |
| CCN[C@@H](C)Cc1ccccc1 | false |
| CC(C)c1ccc(O)cc1 | false |
| COc1cc(CC(C)N)cc(OC)c1OC (stereo not drawn) | false |
| COc1ccc2c(C(=O)c3ccc(Cl)cc3)c(C)n(CC(=O)O)c2c1 | false |
| COP(=O)(OC)O/C(C)=C/C(=O)N(C)C | false |
| NCC1(CC(=O)O)CCCCC1 | false |
| C=CCc1cc(OC)c2c(c1)OCO2 | true |
| Cc1cccc2sc3nncn3c12 | true |
| O=[N+]([O-])CCO | false |
